Just for reference, patent US11753408B2 is where these values come from.

// Microsomal Stability (rat) T1/2 lookup, one value per entry
- EXPERIMENT DESCRIPTION: Microsomal stability (rat)
- Format: in vitro ADME
- RUN PARAMETERS: rat microsomes

Before answering, review these 4 worked examples.
CN(C)Cc1ccc(-c2ccc3ncc4ccc(=O)n(-c5ccc(C(=O)N6CCN(CCO)CC6)cc5)c4c3c2)cc1 [Compound 162] : >30.0 min
O=C1NCc2cc(-n3c(=O)ccc4cnc5ccc(-c6ccc(CN7CCOCC7)cc6)cc5c43)ccc21 [Compound 369] : 26 min
O=C(c1ccc(-n2c(=O)ccc3cnc4ccc(-c5ccc(Cl)cc5)cc4c32)cc1)N1CCCC1 [Compound 106] : 2.1 min
O=C1c2ccc(-n3c(=O)ccc4cnc5ccc(-c6ccc(Cl)cc6)cc5c43)cc2CN1C1CC1 [Compound 353] : >30.0 min

In one line, give reported Microsomal Stability (rat) T1/2 of the entry CC(C)(N)c1ccc(-c2ccc3ncc4ccc(=O)n(-c5ccc(C(=O)NC6CC6)cc5)c4c3c2)cc1 [Compound 246] .
>30 min

In one line, give reported Microsomal Stability (rat) T1/2 of the entry O=C(NCC1CCOCC1)c1ccc(-n2c(=O)ccc3cnc4ccc(-c5ccc(Cl)cc5)cc4c32)cc1 [Compound 288] .
1.2 min

In one line, give reported Microsomal Stability (rat) T1/2 of the entry CS(=O)(=O)c1ccc(-n2c(=O)ccc3cnc4ccc(-c5ccc(Cl)cc5)cc4c32)cc1CN1CCOCC1 [Compound 66] .
1.4 min

---

- EXPERIMENT DESCRIPTION: Solubility at pH 7.4
- Assay type: physicochemical
// Sol @ pH 7.4 (ug/mL) lookup, one value per entry
// note: answer is a bare numeric in ug/mL

Before answering, review these 2 worked examples.
CS(=O)(=O)c1ccc(-n2c(=O)ccc3cnc4ccc(-c5ccc(C6(N)CC6)cc5)cc4c32)cc1 [Compound 36] : 5.9
CN(C)CCc1ccc(-c2ccc3ncc4ccc(=O)n(-c5ccc(S(C)(=O)=O)cc5)c4c3c2)cc1 [Compound 68] : 15.7

In one line, give reported Sol @ pH 7.4 (ug/mL) of the entry CS(=O)(=O)c1ccc(-n2c(=O)ccc3cnc4ccc(-c5ccc(N)nc5)cc4c32)cc1N1CCOCC1 [Compound 83] .
5.62

In one line, give reported Sol @ pH 7.4 (ug/mL) of the entry NCCc1ccc(-c2ccc3ncc4ccc(=O)n(-c5ccc6c(c5)CNC6=O)c4c3c2)cc1 [Compound 377] .
0

In one line, give reported Sol @ pH 7.4 (ug/mL) of the entry O=C1NCc2cc(-n3c(=O)ccc4cnc5ccc(-c6ccc(CN7CCCC7)cc6)cc5c43)ccc21 [Compound 371] .
45.3

In one line, give reported Sol @ pH 7.4 (ug/mL) of the entry Nc1ccc(-c2ccc3ncc4ccc(=O)n(-c5ccc6c(c5)CN(C5CC5)C6=O)c4c3c2)cn1 [Compound 390] .
4.2

In one line, give reported Sol @ pH 7.4 (ug/mL) of the entry C[S+]([O-])c1ccc(-n2c(=O)ccc3cnc4ccc(-c5ccc(N)nc5)cc4c32)cc1 (stereo not drawn) [Compound 81] .
10

In one line, give reported Sol @ pH 7.4 (ug/mL) of the entry Nc1ccc(-c2ccc3ncc4ccc(=O)n(-c5ccc6c(c5)C(=O)NC6)c4c3c2)cn1 [Compound 387] .
1.4

In one line, give reported Sol @ pH 7.4 (ug/mL) of the entry O=C(O)CN1Cc2cc(-n3c(=O)ccc4cnc5ccc(-c6ccc(Cl)cc6)cc5c43)ccc2C1=O [Compound 365] .
55.9

---

- EXPERIMENT DESCRIPTION: Microsomal stability (rat)
- Assay type: in vitro ADME
- RUN PARAMETERS: rat microsomes
PROPERTY MEASURED: Microsomal Stability (rat) T1/2

Before answering, review these 3 worked examples.
CN(C)C(=O)c1cc(-c2ccc3ncc4ccc(=O)n(-c5ccc(C(=O)N6CCOCC6)cc5)c4c3c2)ccc1Cl [Compound 146] : 9.6 min
CCN(CC)Cc1ccc(-c2ccc3ncc4ccc(=O)n(-c5cc(C#N)ccc5C)c4c3c2)cc1 [Compound 9] : 10.9 min
O=C1NCc2cc(-c3ccc4ncc5ccc(=O)n(-c6ccc(C(=O)N7CCOCC7)cc6)c5c4c3)ccc21 [Compound 129] : >30.0 min

Now look at this one.
In one line, give reported Microsomal Stability (rat) T1/2 of the entry O=C(O)c1cc(-c2ccc3ncc4ccc(=O)n(-c5ccc(C(=O)N6CCOCC6)cc5)c4c3c2)ccc1Cl [Compound 117] .
>30.0 min

---

- EXPERIMENT DESCRIPTION: Microsomal stability (rat)
- Assay type: in vitro ADME
- RUN PARAMETERS: rat microsomes
PROPERTY MEASURED: Microsomal Stability (rat) T1/2

Before answering, review these 6 worked examples.
CN(C)C(=O)c1cccc(-n2c(=O)ccc3cnc4ccc(-c5ccc(N)nc5)cc4c32)c1 : >30.0 min
Cn1c(=O)n(-c2cccc(C#N)c2)c2c3cc(-c4ccc(F)cc4)ccc3ncc21 : >30.0 min
CS(=O)(=O)c1ccc(-n2c(=O)ccc3cnc4ccc(-c5ccc(C6(N)CC6)cc5)cc4c32)cc1 : >30 min
O=C(NCCN1CCCCC1)c1ccc(-n2c(=O)ccc3cnc4ccc(-c5ccc(Cl)cc5)cc4c32)cc1 : 1.9 min
O=C(NC1CC1)c1ccc(-n2c(=O)ccc3cnc4ccc(-c5ccc(Cl)c(O)c5)cc4c32)cc1 : >30 min
CC(=O)n1c(=O)n(-c2cccc(C#N)c2)c2c3cc(-c4ccc(Cl)cc4)ccc3ncc21 : 2.4 min

In one line, give reported Microsomal Stability (rat) T1/2 of the entry `Cc1cc(-c2ccc3ncc4ccc(=O)n(-c5ccc(S(C)(=O)=O)cc5)c4c3c2)ccc1Cl` .
>30.0 min

---

// mTOR lookup, one value per entry
- TARGET UNDER TEST: mTOR (Homo sapiens, UniProt P42345)
- EXPERIMENT DESCRIPTION: mTOR activity (no method described)
- Format: biochemical
// note: answer is a bare numeric in µM

Before answering, review these 3 worked examples.
CN(C)CCc1ccc(-c2ccc3ncc4ccc(=O)n(-c5ccc(C(=O)NC6CC6)cc5)c4c3c2)cc1 : 6.061
CN(C)Cc1ccc(-c2ccc3ncc4ccc(=O)n(-c5ccc(C(=O)NC6CC6)cc5)c4c3c2)cc1 : 6.497
CCCCNC(=O)c1ccc(-n2c(=O)ccc3cnc4ccc(-c5ccc(Cl)cc5)cc4c32)cc1 : 2.492

Now look at this one.
In one line, give reported mTOR of the entry `O=C(NC1CC1)c1ccc(-n2c(=O)ccc3cnc4ccc(-c5ccc(F)cc5)cc4c32)cn1` .
50

---

- EXPERIMENT DESCRIPTION: Microsomal stability (rat)
- Assay type: in vitro ADME
- RUN PARAMETERS: rat microsomes
PROPERTY MEASURED: Microsomal Stability (rat) T1/2

Before answering, review these 3 worked examples.
COc1cc(-c2ccc3ncc4c(c3c2)n(-c2cccc(C#N)c2)c(=O)n4C)ccc1Cl [Compound 403] : >30.0 min
CCN(CC)Cc1ccc(-c2ccc3ncc4ccc(=O)n(-c5ccc(C(=O)NC6CC6)cc5)c4c3c2)cc1 [Compound 243] : >30 min
CN(C)CCc1ccc(-c2ccc3ncc4ccc(=O)n(-c5ccc(S(C)(=O)=O)cc5)c4c3c2)cc1 [Compound 68] : >30 min

In one line, give reported Microsomal Stability (rat) T1/2 of the entry Cc1cc(C(=O)NCCCN2CCC(C)CC2)ccc1-n1c(=O)ccc2cnc3ccc(-c4ccc(Cl)cc4)cc3c21 [Compound 283] .
2.7 min

---

- EXPERIMENT DESCRIPTION: Solubility at pH 7.4
- Assay type: physicochemical
PROPERTY MEASURED: Sol @ pH 7.4

Before answering, review these 3 worked examples.
CCNC(=O)c1ccc(-n2c(=O)ccc3cnc4ccc(-c5ccc(Cl)cc5)cc4c32)cc1 : <1 ug/mL
N#Cc1ccc2ncc3ccc(=O)n(-c4ccc(C(=O)N5CCOCC5)cc4)c3c2c1 : >61 ug/mL
Cc1cc(C(=O)NCCCN2CCCCC2)ccc1-n1c(=O)ccc2cnc3ccc(-c4ccc(Cl)cc4)cc3c21 : >83 ug/mL

In one line, give reported Sol @ pH 7.4 of the entry `NCc1cccc(-c2ccc3ncc4ccc(=O)n(-c5ccc(C(=O)N6CCOCC6)cc5)c4c3c2)c1` .
43.7 ug/mL

---

- EXPERIMENT DESCRIPTION: Solubility at pH 7.4
- Assay type: physicochemical
PROPERTY MEASURED: Sol @ pH 7.4 (ug/mL)
// note: answer is a bare numeric in ug/mL

Before answering, review these 5 worked examples.
NC1(c2ccc(-c3ccc4ncc5ccc(=O)n(-c6ccc7c(c6)CNC7=O)c5c4c3)cc2)CC1 : 3.3
O=C1c2ccc(-n3c(=O)ccc4cnc5ccc(-c6ccc(Cl)cc6)cc5c43)cc2CN1C1CC1 : 0
NCCCN1Cc2cc(-n3c(=O)ccc4cnc5ccc(-c6ccc(Cl)cc6)cc5c43)ccc2C1=O : 13.4
CS(=O)(=O)c1ccc(-n2c(=O)ccc3cnc4ccc(-c5cccc(CN)c5)cc4c32)cc1 : 1.4
CN1C(=O)CCc2cc(-n3c(=O)ccc4cnc5ccc(-c6ccc(Cl)cc6)cc5c43)ccc21 : 0.06

In one line, give reported Sol @ pH 7.4 (ug/mL) of the entry `Nc1ccc(-c2ccc3ncc4ccc(=O)n(-c5ccc6c(c5)CNC6=O)c4c3c2)cn1` .
11.8

In one line, give reported Sol @ pH 7.4 (ug/mL) of the entry `CS(=O)(=O)c1ccc(-n2c(=O)ccc3cnc4ccc(-c5ccc(Cl)cc5)cc4c32)cc1CN1CCNCC1` .
4.3

In one line, give reported Sol @ pH 7.4 (ug/mL) of the entry `CN(C)CCOc1ccc(-c2ccc3ncc4ccc(=O)n(-c5ccc(S(C)(=O)=O)cc5)c4c3c2)cc1` .
2
